Reported log10 IC50 is given for each of the following molecules.
molecular target: HIV-1 PR (Human immunodeficiency virus type 1 group M subtype B, UniProt P04585); experiment: HIV-protease inhibitory activity assay (FRET peptide substrate); details: Test Example 1
metricName: log10 IC50 (log10 of the value in nM)

INSERT INTO measurements (molecule, metricname, measurednumber) VALUES
  ('COc1ccc(S(=O)(=O)N(CC(C)C)CC(O)C(Cc2ccc(OCc3ccccc3-c3oc4c(c3C(=O)O)CC(C)(C)CC4)cc2)NC(=O)OC2COC3(C)OCCC23)cc1 (stereo not shown) [Compound I-49]', 'log10 IC50', 0.40),
  ('COc1ccc(S(=O)(=O)N(CC(C)C)C[C@@H](O)[C@H](Cc2ccc(O[C@@H]3CCN(c4ccccc4-c4sc5c(c4C(=O)O)CC(C)(C)CC5)C3)cc2)NC(=O)O[C@H]2CO[C@@]3(C)OCC[C@@H]23)cc1 [Compound I-6]', 'log10 IC50', 0.13),
  ('COc1ccc(S(=O)(=O)N(CC(C)C)CC(O)C(Cc2ccc(NCc3cc(N4CCC4)ccc3-c3sc4c(c3C(=O)O)CC(C)(C)CC4)cc2)NC(=O)OC2COC3(C)OCCC23)cc1 (stereo not shown) [Compound I-693]', 'log10 IC50', 0.52),
  ('COc1ccc(S(=O)(=O)N(CC(C)C)CC(O)C(Cc2ccc(NCC3CC(C)(C)CC3c3sc4c(c3C(=O)O)CC(C)(C)CC4)cc2)NC(=O)OC2COC3(C)OCCC23)cc1 (stereo not shown) [Compound I-735]', 'log10 IC50', 0.19),
  ('COc1ccc(S(=O)(=O)N(CC(C)C)CC(O)C(Cc2ccc(N(C)C(=O)Nc3ccccc3-c3sc4c(c3C(=O)O)CC(C)(C)CC4)cc2)NC(=O)OC2COC3(C)OCCC23)cc1 (stereo not shown) [Compound I-269]', 'log10 IC50', 0.53),
  ('COc1ccc(S(=O)(=O)N(CC(C)C)CC(O)C(Cc2ccc(N(Cc3ccccc3)Cc3ccccc3-c3sc4c(c3C(=O)O)CC(C)(C)CC4)cc2)NC(=O)OC2COC3(C)OCCC23)cc1 (stereo not shown) [Compound I-299]', 'log10 IC50', 1.22),
  ('COc1ccc(S(=O)(=O)N(CC(C)C)CC(O)C(Cc2ccc(NCc3ccc(-c4sc5c(c4C(=O)O)CC(C)(C)CC5)c(C)c3)cc2)NC(=O)OC2COC3(C)OCCC23)cc1 (stereo not shown) [Compound I-534]', 'log10 IC50', 0.61),
  ('CC(C)CN(CC(O)C(Cc1ccc(OCc2ccccc2-c2sc3c(c2C(=O)O)CC(C)(C)CC3)cc1)NC(=O)OC1COC2(C)OCCC12)S(=O)(=O)c1ccc2c(c1)OCO2 (stereo not shown) [Compound I-132]', 'log10 IC50', 0.42),
  ('COc1ccc(S(=O)(=O)N(CC(C)C)CC(O)C(Cc2ccc(N(C)Cc3ccc(OC)cc3-c3sc4c(c3C(=O)O)CC(C)(C)CC4)cc2)NC(=O)OC2COC3(C)OCCC23)cc1 (stereo not shown) [Compound I-490]', 'log10 IC50', 0.30),
  ('CC1(C)CCc2sc(-c3ccc(C(F)(F)F)cc3CNc3ccc(CC(NC(=O)OC4COC5OCCC45)C(O)CN(CC4CCC4)S(=O)(=O)c4ccc5c(c4)OCO5)cc3)c(C(=O)O)c2C1 (stereo not shown) [Compound I-875]', 'log10 IC50', 0.83),
  ('COc1ccc(S(=O)(=O)N(CC(C)C)CC(O)C(Cc2ccc(NCc3ccc4nc(-c5sc6c(c5C(=O)O)CC(C)(C)CC6)sc4c3)cc2)NC(=O)OC2COC3(C)OCCC23)cc1 (stereo not shown) [Compound I-487]', 'log10 IC50', 0.48),
  ('COc1ccc(S(=O)(=O)N(CC(C)C)CC(O)C(Cc2ccc(NCC3(c4cccc(-c5sc6c(c5C(=O)O)CC(C)(C)CC6)c4)CCCC3)cc2)NC(=O)OC2COC3(C)OCCC23)cc1 (stereo not shown) [Compound I-393]', 'log10 IC50', 1.16),
  ('COc1ccc(S(=O)(=O)N(CC2CCCC2)CC(O)C(Cc2ccc(OCc3ccccc3-n3nc4c(c3C(=O)O)CC3(CCCC3)CC4)cc2)NC(=O)OC2COC3(C)OCCC23)cc1 (stereo not shown) [Compound I-146]', 'log10 IC50', -0.04),
  ('COc1ccc(S(=O)(=O)N(CC(C)C)CC(O)C(Cc2ccc(NCc3ccccc3-c3ccc4c(c3)cc(C(=O)O)n4C)cc2)NC(=O)OC2COC3(C)OCCC23)cc1 (stereo not shown) [Compound I-899]', 'log10 IC50', 0.16),
  ('COc1ccc(S(=O)(=O)N(CC(C)C)CC(O)C(Cc2ccc(N3CCC(C(=O)N(C)c4sc5c(c4C(=O)O)CC(C)(C)CC5)C3)cc2)NC(=O)OC2COC3(C)OCCC23)cc1 (stereo not shown) [Compound I-646]', 'log10 IC50', 0.47),
  ('COc1ccc(S(=O)(=O)N(CC(C)C)CC(O)C(Cc2ccc(OCc3ccccc3-n3nc(C(=O)O)c4c3CCC(C(F)(F)F)C4)cc2)NC(=O)OC2COC3(C)OCCC23)cc1 (stereo not shown) [Compound I-142]', 'log10 IC50', 0.24),
  ('COc1ccc(S(=O)(=O)N(CC(C)C)CC(O)C(Cc2ccc(CCc3sc4c(c3C(=O)O)CC(C)(C)CC4(C)C)cc2)NC(=O)OC2COC3(C)OCCC23)cc1 (stereo not shown) [Compound I-105]', 'log10 IC50', 0.38),
  ('COc1ccc(S(=O)(=O)N(CC(C)C)CC(O)C(Cc2ccc(NCc3nc(N(C4CCCCC4)C4CCCCC4)sc3-c3sc4c(c3C(=O)O)CC(C)(C)CC4)cc2)NC(=O)OC2COC3(C)OCCC23)cc1 (stereo not shown) [Compound I-760]', 'log10 IC50', 0.53),
  ('Cc1cc(OCCN(CC(O)C(Cc2ccccc2)NC(=O)OC2COC3(C)OCCC23)S(=O)(=O)c2ccc3ncsc3c2)ccc1-c1sc2c(c1C(=O)O)CC(C)(C)CC2 (stereo not shown) [Compound I-166]', 'log10 IC50', 0.95);
